# 1O2 QY 532 nm per record follows
assay: Singlet oxygen quantum yield measurements; assay type: physicochemical; details: in CD2Cl2, excitation 532 nm; error is one standard deviation
Give the figure by itself; no unit, no explanation.

>>> data_value("CCN1C(=S)O/C(=C\\c2ccc(-c3ccccc3OC)o2)C1=S [JL103]")
0.30
>>> data_value("CCN1C(=S)O/C(=C\\c2ccc(-c3ccc(OC)cc3OC)o2)C1=S [JL109]")
0.38
>>> data_value("CCN1C(=S)O/C(=C\\c2ccc(-c3ccc(N(C)C)cc3)o2)C1=S [JL118]")
0.15
>>> data_value("C=CCN1C(=O)/C(=C/c2ccc(-c3ccccc3)o2)SC1=S [LJ001]")
0

Task item: Entry CCN1C(=S)O/C(=C\c2ccc(-c3c(OC)cc(OC)cc3OC)o2)C1=S [JL122] : reported 1O2 QY 532 nm = ?
Reply: 0.23

###

test: Absorbance spectra / UV-visible spectra integration; type: physicochemical; conditions: 100 µM in DMSO
Assign class by Abs Max (λmax): not lower than 500 nm means label 1; lower than 500 nm means label 0.

Please review the entries below; each comes with its answer.
>>> assigned_label("CCN1C(=S)O/C(=C\\c2ccc(-c3c(OC)cc(OC)cc3OC)o2)C1=S")
"label 1"
>>> assigned_label("C=CCN1C(=O)S/C(=C\\c2ccc(-c3ccccc3)o2)C1=O")
"label 0"
>>> assigned_label("CCN1C(=S)O/C(=C\\c2ccc(-c3ccc(N(C)C)cc3)o2)C1=S")
"label 1"

Task item: Entry `C=CCN1C(=O)/C(=C/c2ccc(-c3ccccc3)o2)SC1=S` : is its Abs Max (λmax) no less than 500 nm?
Reply: label 0

Task item: Entry `CCN1C(=S)O/C(=C\c2ccc(-c3ccc(OC)cc3OC)o2)C1=S` : is its Abs Max (λmax) no less than 500 nm?
Reply: label 1

###

test: Pharmacokinetics in mice; conditions: female, Balb/c, mouse, in vivo, po, 100 mg/kg
Quantity kind: bioavailability

Task item: Entry `CCN1C(=S)O/C(=C\c2ccc(-c3ccccc3OC)o2)C1=S` : reported bioavailability = ?
Reply: 3.1 to 105%

###

experiment: Pharmacokinetics in mice; conditions: female, Balb/c, mouse, in vivo, ip, 5 mg/kg
Quantity kind: AUC(0-t)

Task item: Entry CCN1C(=S)O/C(=C\c2ccc(-c3c(OC)cc(OC)cc3OC)o2)C1=S [JL122] : reported AUC(0-t) = ?
Reply: 569 ng·h/mL

###

assay: Singlet oxygen quenching measurements; assay type: physicochemical; conditions: 355 nm with C60 as external sensitizer; error is one standard deviation
Quantity kind: kT × 10-7

>>> data_value("CCN1C(=S)O/C(=C\\c2ccc(-c3ccc(OC)cc3OC)o2)C1=S")
"2.000 ± 0.100 M-1s-1"
>>> data_value("CCN1C(=S)O/C(=C\\c2ccc(-c3ccccc3OC)o2)C1=S")
"0.636 ± 0.030 M-1s-1"
>>> data_value("CCN1C(=S)O/C(=C\\c2ccc(-c3c(OC)cc(OC)cc3OC)o2)C1=S")
"1.970 ± 0.050 M-1s-1"
>>> data_value("C=CCN1C(=O)/C(=C/c2ccc(-c3ccccc3)o2)SC1=S")
"0.189 ± 0.010 M-1s-1"
>>> data_value("C=CCN1C(=O)S/C(=C\\c2ccc(-c3ccccc3)o2)C1=O")
"0.191 ± 0.010 M-1s-1"

Now for the molecule whose kT × 10-7 we want.
Task item: Entry `CCN1C(=S)O/C(=C\c2ccc(-c3ccc(N(C)C)cc3)o2)C1=S` : reported kT × 10-7 = ?
Reply: 4.600 ± 0.300 M-1s-1

###

assay: Pharmacokinetics in mice; conditions: female, Balb/c, mouse, in vivo, ip, 10 mg/kg
Quantity kind: bioavailability

Task item: Entry `CCN1C(=S)O/C(=C\c2ccc(-c3ccccc3OC)o2)C1=S` : reported bioavailability = ?
Reply: ~50%

###

experiment: Absorbance spectra / UV-visible spectra integration; assay type: physicochemical; settings: integrated absorption divided by concentration, normalized relative to LJ001 (LJ001 = 100)
Quantity kind: AUC (400-750 nm)
Give the figure by itself; no unit, no explanation.

Would you please look over these solved cases?
>>> data_value("CCN1C(=S)O/C(=C\\c2ccc(-c3c(OC)cc(OC)cc3OC)o2)C1=S")
153
>>> data_value("CCN1C(=S)O/C(=C\\c2ccc(-c3ccc(N(C)C)cc3)o2)C1=S")
200
>>> data_value("C=CCN1C(=O)/C(=C/c2ccc(-c3ccccc3)o2)SC1=S")
100
>>> data_value("CCN1C(=S)O/C(=C\\c2ccc(-c3ccccc3OC)o2)C1=S")
153

Now for the molecule whose AUC (400-750 nm) we want.
Task item: Entry `CCN1C(=S)O/C(=C\c2ccc(-c3ccc(OC)cc3OC)o2)C1=S` : reported AUC (400-750 nm) = ?
Reply: 178

###

system: CMV; assay: microbe, parasite or virus in culture; assay type: cell-based, Cytomegalovirus (strain T3259); conditions: read-out: IC50 CMV; 10 min white light exposure of treated virus
Quantity kind: IC50 (nM)
I only need the number, in nM, no unit after it.

Task item: Entry `CCN1C(=S)O/C(=C\c2ccc(-c3ccccc3OC)o2)C1=S` : reported IC50 = ?
Reply: 4

###

# IL / Iw per record follows
assay: Membrane partition into POPC LUV (fluorescence); conditions: POPC LUV; fluorescence intensity ratio from curve fitting
Give the figure by itself; no unit, no explanation.

Would you please look over these solved cases?
>>> data_value("CCN1C(=S)O/C(=C\\c2ccc(-c3ccccc3OC)o2)C1=S")
14.78
>>> data_value("CCN1C(=S)O/C(=C\\c2ccc(-c3c(OC)cc(OC)cc3OC)o2)C1=S")
143.8
>>> data_value("C=CCN1C(=O)S/C(=C\\c2ccc(-c3ccccc3)o2)C1=O")
2.79
>>> data_value("CCN1C(=S)O/C(=C\\c2ccc(-c3ccc(N(C)C)cc3)o2)C1=S")
233

Now for the compound whose IL / Iw we want.
Task item: Entry `C=CCN1C(=O)/C(=C/c2ccc(-c3ccccc3)o2)SC1=S` : reported IL / Iw = ?
Reply: 2.29

###

tested on: H1N1; assay: microbe, parasite or virus in culture; format: cell-based, Influenza A A/PR/8/34 (H1N1); conditions: read-out: IC50 H1N1
Quantity kind: IC50
# output: number + unit

>>> data_value("C=CCN1C(=O)/C(=C/c2ccc(-c3ccccc3)o2)SC1=S")
"0.026 µM"

Task item: Entry `CCN1C(=S)O/C(=C\c2ccc(-c3ccccc3OC)o2)C1=S` : reported IC50 = ?
Reply: 0.002 µM

###

test: Pharmacokinetics in mice; conditions: female, Balb/c, mouse, in vivo, ip, 5 mg/kg, Cmax, ip 5 mg/kg
Quantity kind: Cmax (ng/mL)
I only need the number, in ng/mL, no unit after it.

Task item: Entry `CCN1C(=S)O/C(=C\c2ccc(-c3c(OC)cc(OC)cc3OC)o2)C1=S` : reported Cmax = ?
Reply: 122

###

assay: Pharmacokinetics in mice; settings: female, Balb/c, mouse, in vivo
Quantity kind: half-life
# output: number + unit

Task item: Entry C=CCN1C(=O)/C(=C/c2ccc(-c3ccccc3)o2)SC1=S [LJ001] : reported half-life = ?
Reply: 12 min

###

test: in vitro; settings: human
# strict inequality: CC50 < 10 µM yields Met, everything else yields Not met

Please review the entries below; each comes with its answer.
>>> assigned_label("C=CCN1C(=O)/C(=C/c2ccc(-c3ccccc3)o2)SC1=S")
"Not met"
>>> assigned_label("CCN1C(=S)O/C(=C\\c2ccc(-c3ccc(OC)cc3OC)o2)C1=S")
"Met"
>>> assigned_label("CCN1C(=S)O/C(=C\\c2ccc(-c3ccccc3OC)o2)C1=S")
"Met"

Task item: Please determine if `CCN1C(=S)O/C(=C\c2ccc(-c3c(OC)cc(OC)cc3OC)o2)C1=S` is below 10 µM in terms of CC50.
Reply: Not met

Task item: Please determine if `CCN1C(=S)O/C(=C\c2ccc(-c3ccc(N(C)C)cc3)o2)C1=S` is below 10 µM in terms of CC50.
Reply: Not met

Task item: Please determine if `C=CCN1C(=O)S/C(=C\c2ccc(-c3ccccc3)o2)C1=O` is below 10 µM in terms of CC50.
Reply: Not met

###

experiment: Membrane partition into HIV membrane-like mixture LUV (fluorescence)
Quantity kind: Kp at 10 min, 50 µM
Give the figure by itself; no unit, no explanation.

Would you please look over these solved cases?
>>> data_value("C=CCN1C(=O)/C(=C/c2ccc(-c3ccccc3)o2)SC1=S")
5190
>>> data_value("CCN1C(=S)O/C(=C\\c2ccc(-c3ccccc3OC)o2)C1=S")
310

Now for the compound whose Kp at 10 min, 50 µM we want.
Task item: Entry `CCN1C(=S)O/C(=C\c2ccc(-c3ccc(N(C)C)cc3)o2)C1=S` : reported Kp at 10 min, 50 µM = ?
Reply: 2010

Just for reference, paper PMC3630091 is where these values come from.
